experimental-system: von Hippel-Lindau disease tumor suppressor/Lysine-specific demethylase 4A (Homo sapiens, UniProt O75164+P40337)
Sequence (O75164 2-1064 limits assumed): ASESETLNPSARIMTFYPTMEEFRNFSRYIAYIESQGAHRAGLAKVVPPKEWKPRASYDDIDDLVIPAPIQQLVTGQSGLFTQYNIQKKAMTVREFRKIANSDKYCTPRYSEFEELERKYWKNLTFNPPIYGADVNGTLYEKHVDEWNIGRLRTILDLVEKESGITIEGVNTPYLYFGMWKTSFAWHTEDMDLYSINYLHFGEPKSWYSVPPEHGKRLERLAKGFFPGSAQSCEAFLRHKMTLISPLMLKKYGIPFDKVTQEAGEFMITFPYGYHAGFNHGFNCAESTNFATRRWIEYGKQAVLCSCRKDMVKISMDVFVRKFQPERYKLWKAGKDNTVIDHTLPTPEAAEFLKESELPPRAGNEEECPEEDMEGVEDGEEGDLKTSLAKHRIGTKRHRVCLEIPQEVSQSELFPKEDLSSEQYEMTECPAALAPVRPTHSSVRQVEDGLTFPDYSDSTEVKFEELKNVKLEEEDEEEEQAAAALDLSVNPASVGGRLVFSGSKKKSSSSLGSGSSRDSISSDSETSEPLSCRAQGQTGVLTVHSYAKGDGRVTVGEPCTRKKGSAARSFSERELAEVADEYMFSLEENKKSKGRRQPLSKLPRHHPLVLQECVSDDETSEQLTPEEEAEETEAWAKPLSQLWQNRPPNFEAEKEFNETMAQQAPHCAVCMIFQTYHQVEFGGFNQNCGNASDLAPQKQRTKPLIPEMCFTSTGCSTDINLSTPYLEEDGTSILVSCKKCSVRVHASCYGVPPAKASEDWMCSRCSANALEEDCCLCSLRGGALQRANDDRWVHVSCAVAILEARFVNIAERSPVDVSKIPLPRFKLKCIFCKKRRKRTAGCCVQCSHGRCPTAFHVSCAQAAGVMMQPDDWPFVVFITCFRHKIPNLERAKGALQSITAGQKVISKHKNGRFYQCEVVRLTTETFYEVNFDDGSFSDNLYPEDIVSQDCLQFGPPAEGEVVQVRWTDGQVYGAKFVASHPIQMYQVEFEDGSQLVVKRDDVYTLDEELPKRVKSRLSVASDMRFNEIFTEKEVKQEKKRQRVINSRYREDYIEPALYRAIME
Sequence (P40337 whole entry partner): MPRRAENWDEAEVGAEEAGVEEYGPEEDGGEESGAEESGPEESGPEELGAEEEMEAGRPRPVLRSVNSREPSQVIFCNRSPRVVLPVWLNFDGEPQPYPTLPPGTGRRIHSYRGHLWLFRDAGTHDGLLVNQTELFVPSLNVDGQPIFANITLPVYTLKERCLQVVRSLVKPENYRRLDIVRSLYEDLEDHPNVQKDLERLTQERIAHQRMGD
test-details: PROTAC activity at VHL/KDM4A in human KYSE-150 cells assessed as induction of KDM4A degradation at 0.1 uM incubated for 12 hrs by Western blot analysis relative to control
Format: cell-based
stated-conditions: KYSE-150 cell line

[
  {
    "substance-smiles": "Cc1ncsc1-c1ccc([C@H](C)NC(=O)[C@@H]2C[C@@H](O)CN2C(=O)[C@@H](NC(=O)c2ccc(CCCCOc3ccc(N(C)c4ccc5c(c4)OCC[C@H]5CNc4cnccc4C(=O)O)cc3)cc2)C(C)(C)C)cc1",
    "Activity / %": 30.5
  },
  {
    "substance-smiles": "Cc1ncsc1-c1ccc([C@H](C)NC(=O)[C@@H]2C[C@@H](O)CN2C(=O)[C@@H](NC(=O)CCCCCCCCCCCOc2ccc(N(C)c3ccc4c(c3)OCC[C@H]4CNc3cnccc3C(=O)O)cc2)C(C)(C)C)cc1",
    "Activity / %": 47.1
  },
  {
    "substance-smiles": "Cc1ncsc1-c1ccc([C@H](C)NC(=O)[C@@H]2C[C@@H](O)CN2C(=O)[C@@H](NC(=O)CCCCCCCOc2cccc(N(C)c3ccc4c(c3)OCC[C@H]4CNc3cnccc3C(=O)O)c2)C(C)(C)C)cc1",
    "Activity / %": -0.2
  },
  {
    "substance-smiles": "Cc1ncsc1-c1ccc([C@H](C)NC(=O)[C@@H]2C[C@@H](O)CN2C(=O)[C@@H](NC(=O)CCCCCCCCCCOc2ccc(N(C)c3ccc4c(c3)OCC[C@H]4CNc3cnccc3C(=O)O)cc2)C(C)(C)C)cc1",
    "Activity / %": 36.7
  },
  {
    "substance-smiles": "Cc1ncsc1-c1ccc([C@H](C)NC(=O)[C@@H]2C[C@@H](O)CN2C(=O)[C@@H](NC(=O)c2ccc(CCCCCCOc3ccc(N(C)c4ccc5c(c4)OCC[C@H]5CNc4cnccc4C(=O)O)cc3)cc2)C(C)(C)C)cc1",
    "Activity / %": 52.4
  },
  {
    "substance-smiles": "Cc1ncsc1-c1ccc([C@H](C)NC(=O)[C@@H]2C[C@@H](O)CN2C(=O)[C@@H](NC(=O)CCCCCCCCOc2ccc(N(C)c3ccc4c(c3)OCC[C@H]4CNc3cnccc3C(=O)O)cc2)C(C)(C)C)cc1",
    "Activity / %": 34.6
  },
  {
    "substance-smiles": "Cc1ncsc1-c1ccc([C@H](C)NC(=O)[C@@H]2C[C@@H](O)CN2C(=O)[C@@H](NC(=O)C2CCN(C(=O)CCCCCOc3ccc(N(C)c4ccc5c(c4)OCC[C@H]5CNc4cnccc4C(=O)O)cc3)CC2)C(C)(C)C)cc1",
    "Activity / %": 19.5
  },
  {
    "substance-smiles": "Cc1ncsc1-c1ccc([C@H](C)NC(=O)[C@@H]2C[C@@H](O)CN2C(=O)[C@@H](NC(=O)CCCCCCCOc2ccc(N(C)c3ccc4c(c3)OCC[C@H]4CNc3cnccc3C(=O)O)cc2)C(C)(C)C)cc1",
    "Activity / %": 37.1
  },
  {
    "substance-smiles": "Cc1ncsc1-c1ccc([C@H](C)NC(=O)[C@@H]2C[C@@H](O)CN2C(=O)[C@@H](NC(=O)CCOCCOCCOc2ccc(N(C)c3ccc4c(c3)OCC[C@H]4CNc3cnccc3C(=O)O)cc2)C(C)(C)C)cc1",
    "Activity / %": 6.5
  }
]
